EC50 reference
System: BJ
Assay: cytotoxicity toward BJ-TERT-LT-ST fibroblasts, dose response, cell-based, RAS-independent, luminescence (AID 1935);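 further: BJ fibroblasts immortalized with TERT plus LT and ST oncogenes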
Assay type: functional
Details: Homo sapiens
The source made the active and inactive calls.
property label: EC50

[[record]]
compound = "O=C(NCCCn1ccnc1)c1ccc(N2CCCCCC2)c([N+](=O)[O-])c1"
recorded_measurement = "11.4 µM (active)"

[[record]]
compound = "COc1ccccc1NC1=C(C(N)=O)C(=N)C(C(=O)Nc2cccc(Cl)c2Cl)S1 (centres undefined)"
recorded_measurement = "22.3 µM (active)"

[[record]]
compound = "COc1ccc(-[n+]2c(-c3ccccc3)cc(-c3ccc(C)cc3)cc2-c2ccccc2)cc1.[O-][Cl+3]([O-])([O-])[O-]"
recorded_measurement = "19.8 µM (active)"

[[record]]
compound = "C=CCOc1ccccc1CN(C(=O)CCl)c1ccc2c(c1)OCO2"
recorded_measurement = "17.3 µM (inconclusive)"


###

Target: UniProt:P38532
Sequence (P38532 whole entry): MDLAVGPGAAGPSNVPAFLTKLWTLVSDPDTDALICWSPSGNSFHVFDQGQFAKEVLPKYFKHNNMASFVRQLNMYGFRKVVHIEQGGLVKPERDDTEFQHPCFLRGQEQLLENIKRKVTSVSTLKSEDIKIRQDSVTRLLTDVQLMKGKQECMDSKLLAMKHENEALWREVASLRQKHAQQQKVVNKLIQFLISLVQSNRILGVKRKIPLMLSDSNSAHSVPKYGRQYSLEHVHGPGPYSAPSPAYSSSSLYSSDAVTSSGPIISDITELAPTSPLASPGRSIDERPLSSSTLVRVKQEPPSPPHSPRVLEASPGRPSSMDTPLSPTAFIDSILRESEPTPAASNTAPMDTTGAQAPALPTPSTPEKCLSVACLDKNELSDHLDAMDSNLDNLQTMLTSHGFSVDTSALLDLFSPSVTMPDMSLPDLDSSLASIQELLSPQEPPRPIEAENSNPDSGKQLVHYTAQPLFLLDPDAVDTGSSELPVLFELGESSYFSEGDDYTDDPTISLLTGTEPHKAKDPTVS
Assay: HSF1 potentiators in luciferase reporter cells, confirmation, cell-based, NIH3T3, luminescence, dose retest (AID 435004);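 further: stress induced by proteasome inhibitor MG132 added 30 min after compound; luciferase reporter driven by HSF1 response element in NIH3T3 cells; actives raise luminescence as potentiators of the MG132 stress response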
Type: functional
Active and inactive are the calls of the source.
Outcomes: active, inactive

[[record]]
compound = "COCCn1c(=O)[nH]c2cc(C(=O)N3CCN(c4cccc(Cl)c4)CC3)ccc2c1=O"
target_under_test = "UniProt:P38532"
group_label = "inactive"

[[record]]
compound = "COC(=O)C1NN=C(C(=O)c2ccc(Cl)cc2)C1c1ccc(OC)cc1 (stereo unspecified)"
target_under_test = "UniProt:P38532"
group_label = "inactive"

[[record]]
compound = "N#Cc1c(-c2ccccc2)c(-c2ccccc2)n(Cc2ccco2)c1NC(=O)c1cccs1"
target_under_test = "UniProt:P38532"
group_label = "inactive"

[[record]]
compound = "COc1ccccc1NC(=O)C1=C(C)N=C2CC(c3ccc(OC)c(OC)c3)CC(O)=C2C1c1coc2ccccc2c1=O (stereo unspecified)"
target_under_test = "UniProt:P38532"
group_label = "active"

[[record]]
compound = "COCCCNC(=O)CCn1c(=O)c2ccccc2n(CC(=O)Nc2cc(Cl)ccc2C)c1=O"
target_under_test = "UniProt:P38532"
group_label = "inactive"

[[record]]
compound = "CCOc1cc(/C=N/NC(=O)Cn2nc([N+](=O)[O-])cc2C)cc(Br)c1OCc1ccccc1C"
target_under_test = "UniProt:P38532"
group_label = "inactive"

[[record]]
compound = "Cc1sc2nc(CSc3cccc(C(F)(F)F)c3)nc(O)c2c1C"
target_under_test = "UniProt:P38532"
group_label = "inactive"

[[record]]
compound = "CC(=O)Nc1nnc(SCC(=O)c2ccc(F)cc2)s1"
target_under_test = "UniProt:P38532"
group_label = "active"

[[record]]
compound = "COP(=O)(OC)c1nc(-c2cccc3ccccc23)oc1NCc1ccccc1"
target_under_test = "UniProt:P38532"
group_label = "inactive"

[[record]]
compound = "O=[N+]([O-])c1ccc(Sc2ccccc2)nc1"
target_under_test = "UniProt:P38532"
group_label = "inactive"

[[record]]
compound = "C=CCn1c(S)nnc1-c1cc(-c2ccccc2)sc1N"
target_under_test = "UniProt:P38532"
group_label = "inactive"

[[record]]
compound = "COC(=O)c1ccc2c(c1O)C(=O)c1ccccc1C2=O"
target_under_test = "UniProt:P38532"
group_label = "active"

[[record]]
compound = "Cc1c(/C=N/NC(=O)c2ccc(Br)o2)cnn1C"
target_under_test = "UniProt:P38532"
group_label = "inactive"

[[record]]
compound = "Cc1cc2oc3c(c(=O)c2cc1C)C(c1ccc(C(C)C)cc1)N(CCCN1CCOCC1)C3=O (stereo unspecified)"
target_under_test = "UniProt:P38532"
group_label = "inactive"

[[record]]
compound = "O=C(/C(=N/N=C/c1ccc(O)c(O)c1)c1ccccc1)c1ccccc1"
target_under_test = "UniProt:P38532"
group_label = "inactive"

[[record]]
compound = "CCn1c(-c2ccccc2)c(C(=O)CCl)c2ccccc21"
target_under_test = "UniProt:P38532"
group_label = "active"


###

Experiment: Luminescence Cell-Based Dose Retest to Confirm Inhibitors of Cancer Stem Cells. [Related pubchem assays (depositor defined):AID2717, AID2721]
Type: functional
Details: Homo sapiens
The source made the active and inactive calls.
property label: AC50

[[record]]
structure_notation = "COc1cccc(-c2sc3ccccc3c2-c2ccc(OCCN3CCOCC3)cc2)c1"
recorded_measurement = "2.32 µM (active)"

[[record]]
structure_notation = "CCOc1ccccc1N1C(=O)NC(=O)/C(=C\\Nc2ccc(N(CC)CC)cc2)C1=O"
recorded_measurement = "40.9 µM (active)"

[[record]]
structure_notation = "COc1ccc(-c2nc(-c3ccc(NC(=O)c4ccc(Br)o4)cc3)no2)cc1OC"
recorded_measurement = "2.21 µM (active)"

[[record]]
structure_notation = "Cc1cccc(N(C)C(=O)c2cc3c(O)nc4ccc(C)cc4c3s2)c1"
recorded_measurement = "0.394 µM (active)"

[[record]]
structure_notation = "COc1ccc(C(=O)/C=C2/C(=O)Nc3ccccc32)c(OC)c1"
recorded_measurement = "5.87 µM (active)"


###

Target: Sentrin-specific protease 7 (Homo sapiens, UniProt Q9BQF6);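 further: Luminescence-based dose-response confirmation of ultra-high-throughput screening hits, measuring inhibition of SENP7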
Sequence (Q9BQF6 whole entry): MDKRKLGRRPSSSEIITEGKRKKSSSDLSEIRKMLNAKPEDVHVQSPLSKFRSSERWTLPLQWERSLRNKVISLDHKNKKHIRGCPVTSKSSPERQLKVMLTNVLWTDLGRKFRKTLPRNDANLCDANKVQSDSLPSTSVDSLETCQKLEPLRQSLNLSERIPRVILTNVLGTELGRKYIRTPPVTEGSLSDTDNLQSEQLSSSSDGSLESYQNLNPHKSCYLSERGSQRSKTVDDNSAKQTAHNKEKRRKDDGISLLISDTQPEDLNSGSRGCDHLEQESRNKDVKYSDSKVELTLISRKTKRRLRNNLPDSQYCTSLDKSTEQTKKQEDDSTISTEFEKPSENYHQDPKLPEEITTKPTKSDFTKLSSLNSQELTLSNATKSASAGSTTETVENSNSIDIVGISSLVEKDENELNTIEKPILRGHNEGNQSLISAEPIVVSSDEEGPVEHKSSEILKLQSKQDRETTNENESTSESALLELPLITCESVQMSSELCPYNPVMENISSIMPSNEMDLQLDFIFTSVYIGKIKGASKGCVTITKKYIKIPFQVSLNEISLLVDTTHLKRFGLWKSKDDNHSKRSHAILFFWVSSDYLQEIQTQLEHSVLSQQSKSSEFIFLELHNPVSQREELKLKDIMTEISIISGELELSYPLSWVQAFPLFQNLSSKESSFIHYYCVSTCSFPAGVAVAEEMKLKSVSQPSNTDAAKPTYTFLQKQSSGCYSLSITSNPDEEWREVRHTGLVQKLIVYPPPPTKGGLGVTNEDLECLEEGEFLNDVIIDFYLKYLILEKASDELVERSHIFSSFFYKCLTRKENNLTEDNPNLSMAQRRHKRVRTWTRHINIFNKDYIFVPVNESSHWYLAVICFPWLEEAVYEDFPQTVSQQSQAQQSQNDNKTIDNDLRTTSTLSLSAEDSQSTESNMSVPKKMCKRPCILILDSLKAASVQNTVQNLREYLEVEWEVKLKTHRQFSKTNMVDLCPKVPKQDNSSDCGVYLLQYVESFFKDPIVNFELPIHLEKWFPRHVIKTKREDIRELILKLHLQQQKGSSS
Assay type: functional
Activity calls are given as the source filed them.
property label: IC50

[[record]]
structure_notation = "O=C(NNc1cc(N2CCCC2)nc(N2CCCC2)n1)c1ccc([N+](=O)[O-])cc1"
target_under_test = "Sentrin-specific protease 7 (Homo sapiens, UniProt Q9BQF6)"
property_label = "IC50"
recorded_measurement = "2.55 µM (active)"

[[record]]
structure_notation = "CCN(CC)c1ccc(NC(=O)COC(=O)c2cccs2)cc1"
target_under_test = "Sentrin-specific protease 7 (Homo sapiens, UniProt Q9BQF6)"
property_label = "IC50"
recorded_measurement = "11.7 µM (active)"

[[record]]
structure_notation = "Nc1ccc(/C=C/c2ccc3ncccc3c2)cc1"
target_under_test = "Sentrin-specific protease 7 (Homo sapiens, UniProt Q9BQF6)"
property_label = "IC50"
recorded_measurement = "10.4 µM (active)"

[[record]]
structure_notation = "NC(=O)c1c(NC(=O)c2ccccc2)sc2c1CCC2"
target_under_test = "Sentrin-specific protease 7 (Homo sapiens, UniProt Q9BQF6)"
property_label = "IC50"
recorded_measurement = "7.52 µM (active)"

[[record]]
structure_notation = "CC(=O)Nc1ccc(C(=O)COC(=O)C2CCCCC2)c(F)c1"
target_under_test = "Sentrin-specific protease 7 (Homo sapiens, UniProt Q9BQF6)"
property_label = "IC50"
recorded_measurement = "6.32 µM (active)"

